# System: Panc1
# assay-remarks: ATP-dependent cell viability assay (Cell Titer Glo), Example 12
# experimental-parameters: human, 3 days
Therapeutic Index = IC50 resting PBMC/IC50 cancer cell values, listed per item
measured-metric: Therapeutic Index = IC50 resting PBMC/IC50 cancer cell

* CCCC(=O)OC1(C(=O)CO)CCC2C3CCC4=CC(=O)CC[C@]4(C)C3=CC[C@@]21C (single isomer, unassigned) | 1
* CCC(=O)O[C@]1(C(=O)CO)CC[C@H]2[C@@H]3CCC4=CC(=O)CC[C@]4(C)[C@H]3CC[C@@]21C [CB-03-01, cortexolone 17α-propionate] | 0
* CCCC(=O)OCC(=O)[C@@]1(OC(=O)CCC)CCC2C3CCC4=CC(=O)CC[C@]4(C)C3CC[C@@]21C (stereo partly shown) | 2
* CCCCC(=O)O[C@]1(C(=O)CO)CC[C@H]2[C@@H]3CCC4=CC(=O)CC[C@]4(C)[C@H]3CC[C@@]21C [CB-03-05, cortexolone 17α-valerate] | 2

---

# System: LNCaP
# assay-remarks: ATP-dependent cell viability assay (Cell Titer Glo), Example 12
# experimental-parameters: read-out: In vitro proliferation IC50; LNCaP; Table IV
pIC50: −log10 of the molar value.
measured-metric: pIC50

- CCCCC(=O)O[C@]1(C(=O)COC(=O)CC)CC[C@H]2[C@@H]3CCC4=CC(=O)CC[C@]4(C)[C@H]3CC[C@@]21C [CB-03-10, cortexolone 17α-valerate-21-propionate]: 5.00

---

# Therapeutic Index = IC50 resting PBMC/IC50 cancer cell per entry
# Tested on: MCF7
# assay-remarks: In vitro proliferation / cytotoxic assay on breast cancer cells (Examples 14, 25)
# experimental-parameters: human, 3 days
measured-metric: Therapeutic Index = IC50 resting PBMC/IC50 cancer cell

* CCCCC(=O)O[C@]1(C(=O)CO)CC[C@H]2[C@@H]3CCC4=CC(=O)CC[C@]4(C)[C@H]3CC[C@@]21C [CB-03-05, cortexolone 17α-valerate] | 3
* CCC(=O)O[C@]1(C(=O)CO)CC[C@H]2[C@@H]3CCC4=CC(=O)CC[C@]4(C)[C@H]3CC[C@@]21C [CB-03-01, cortexolone 17α-propionate] | 0
* CCCC(=O)OC1(C(=O)CO)CCC2C3CCC4=CC(=O)CC[C@]4(C)C3=CC[C@@]21C (single isomer, unassigned) [CB-03-04] | 4
* CCCC(=O)OCC(=O)[C@@]1(OC(=O)CCC)CCC2C3CCC4=CC(=O)CC[C@]4(C)C3CC[C@@]21C (stereo partly shown) [CB-03-03] | 4

---

# Test system: PC3
# assay-remarks: ATP-dependent cell viability assay (Cell Titer Glo), Example 12
# experimental-parameters: human, 3 days
measured-metric: Therapeutic Index = IC50 stimulated PBMC/IC50 cancer cell

• CCCC(=O)OC1(C(=O)CO)CCC2C3CCC4=CC(=O)CC[C@]4(C)C3=CC[C@@]21C (single isomer, unassigned) = 3
• CCC(=O)O[C@]1(C(=O)CO)CC[C@H]2[C@@H]3CCC4=CC(=O)CC[C@]4(C)[C@H]3CC[C@@]21C [CB-03-01, cortexolone 17α-propionate] = 0
• CCCC(=O)OCC(=O)[C@@]1(OC(=O)CCC)CCC2C3CCC4=CC(=O)CC[C@]4(C)C3CC[C@@]21C (stereo partly shown) = 3
• CCCCC(=O)O[C@]1(C(=O)CO)CC[C@H]2[C@@H]3CCC4=CC(=O)CC[C@]4(C)[C@H]3CC[C@@]21C [CB-03-05, cortexolone 17α-valerate] = 1

---

# Tested on: PC3
# assay-remarks: ATP-dependent cell viability assay (Cell Titer Glo), Example 12
# experimental-parameters: read-out: In vitro proliferation IC50; PC3; Table IV
measured-metric: IC50 (µM)

* CCCCC(=O)O[C@]1(C(=O)COC(=O)CC)CC[C@H]2[C@@H]3CCC4=CC(=O)CC[C@]4(C)[C@H]3CC[C@@]21C [CB-03-10, cortexolone 17α-valerate-21-propionate] | 53

---

Property: Therapeutic Index = IC50 stimulated PBMC/IC50 cancer cell, AVERAGE; scope: individual molecules
# System: 7 cancer cell lines
# assay-remarks: Therapeutic index over a panel of cancer cell lines
# Type: cell-based
# experimental-parameters: average over the cancer cell lines of Table VII
measured-metric: Therapeutic Index = IC50 stimulated PBMC/IC50 cancer cell, AVERAGE

- CCCC(=O)OCC(=O)[C@@]1(OC(=O)CCC)CCC2C3CCC4=CC(=O)CC[C@]4(C)C3CC[C@@]21C (stereo partly drawn) [CB-03-03]: 4
- CCCCC(=O)O[C@]1(C(=O)COC(=O)CC)CC[C@H]2[C@@H]3CCC4=CC(=O)CC[C@]4(C)[C@H]3CC[C@@]21C [CB-03-10, cortexolone 17α-valerate-21-propionate]: 4
- CCCC(=O)OC1(C(=O)CO)CCC2C3CCC4=CC(=O)CC[C@]4(C)C3=CC[C@@]21C (single isomer, unassigned) [CB-03-04]: 4
